From: paper PMC11532418

Test system: NIH/3T3
MEASUREMENT_DESCRIPTION: MTT cytotoxic bioassay on normal cell line
Type: cell-based
REPORTED_CONDITIONS: Mus musculus, NIH3T3, 72 h, read-out: IC50 ± SD
The threshold is 80 µM. Values of IC50 beneath it are tagged Yes; values meeting or exceeding it are tagged No.

molecule="Cn1c(=O)cc(N2CCC(N)CC2)n(Cc2nc3ccccc3c(=O)n2-c2ccc(F)c(Cl)c2)c1=O [9f]" label_value=Yes
molecule="Cc1ccc(-n2c(Cn3c(N4CCC(N)CC4)cc(=O)n(C)c3=O)nc3ccccc3c2=O)cc1 [9d]" label_value=Yes
molecule="N[C@@H](CC(=O)N1CCn2c(nnc2C(F)(F)F)C1)Cc1cc(F)c(F)cc1F [Sitagliptin, reference compound]" label_value=No

* * *

Parameter: IC50. Scope: all listed entries.
Tested on: NIH/3T3
MEASUREMENT_DESCRIPTION: MTT cytotoxic bioassay on normal cell line
Format: cell-based
REPORTED_CONDITIONS: Mus musculus, NIH3T3, 72 h, read-out: IC50 ± SD
MEASUREMENT_KIND: IC50 (µM)

smiles_repr=Cn1c(=O)cc(N2CCC(N)CC2)n(Cc2nc3ccc(Br)cc3c(=O)n2-c2cccc(F)c2)c1=O measured=68.4
smiles_repr=Cn1c(=O)cc(N2CCC(N)CC2)n(Cc2nc3ccc(Br)cc3c(=O)n2-c2ccc(Cl)cc2)c1=O measured=76.9
smiles_repr=Cn1c(=O)cc(N2CCC(N)CC2)n(Cc2nc3ccc(Br)cc3c(=O)n2-c2ccc(Br)cc2)c1=O measured=91
smiles_repr=Cn1c(=O)cc(N2CCC(N)CC2)n(Cc2nc3ccccc3c(=O)n2-c2ccc(Cl)cc2)c1=O measured=72.2
smiles_repr=Cn1c(=O)cc(N2CCC(N)CC2)n(Cc2nc3ccc(Br)cc3c(=O)n2-c2ccc(F)cc2)c1=O measured=89.7
smiles_repr=Cn1c(=O)cc(N2CCC(N)CC2)n(Cc2nc3ccccc3c(=O)n2-c2ccc(F)cc2)c1=O measured=62.9
smiles_repr=Cn1c(=O)cc(N2CCC(N)CC2)n(Cc2nc3ccc(Br)cc3c(=O)n2-c2ccccc2)c1=O measured=102
smiles_repr=Cn1c(=O)cc(N2CCC(N)CC2)n(Cc2nc3ccccc3c(=O)n2-c2ccccc2)c1=O measured=88.1
